B1: library; numbered along this chain (parent)
chain: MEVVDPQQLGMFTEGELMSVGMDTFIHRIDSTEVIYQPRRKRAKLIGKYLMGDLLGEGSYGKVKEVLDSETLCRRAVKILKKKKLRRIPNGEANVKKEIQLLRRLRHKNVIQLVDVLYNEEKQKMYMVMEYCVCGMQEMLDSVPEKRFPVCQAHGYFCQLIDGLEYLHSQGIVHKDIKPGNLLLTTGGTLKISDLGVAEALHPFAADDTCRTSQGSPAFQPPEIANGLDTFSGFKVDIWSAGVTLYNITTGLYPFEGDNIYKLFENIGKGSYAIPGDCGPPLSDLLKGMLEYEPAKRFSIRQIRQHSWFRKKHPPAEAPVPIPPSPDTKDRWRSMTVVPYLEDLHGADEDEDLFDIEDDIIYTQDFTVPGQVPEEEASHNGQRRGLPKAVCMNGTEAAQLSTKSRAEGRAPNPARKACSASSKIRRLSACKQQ

Variants of: B1
Assay: STK11 functional score (HeLa growth suppression), rescaled enrichment; synonymous median = 1, nonsense median = 0 (normalised score)
Conditions: with HeLa; variant type: missense
Class boundaries, taken from values of STK11 functional score, are as follows: low end = under 0.4, middle = from 0.4 up to 1, high end = 1 and over

| mutation | qualitative.label |
| --- | --- |
| K62R | high end |
| N380R | high end |
| L105R | middle |
| D30G | high end |
| Q100E | high end |
| V338P | high end |
| F148A | low end |
| V110T | high end |
| S193I | high end |
| E223T | low end |
| T186A | high end |
| D258V | high end |
| Y340C | high end |
| H107V | low end |
| L344A | high end |
| E357A | high end |
| A153M | low end |
| P373S | high end |
| S428A | high end |
| Y261F | middle |
| R310V | high end |
| E92M | low end |
| G251L | low end |
| C158M | low end |
| E120W | middle |
| V173C | middle |
| W308V | low end |
| L201N | high end |
| G61Y | low end |
| Y36W | low end |
| E349I | high end |
| M136E | low end |
| V77I | high end |
| P323S | high end |
| E65P | middle |
| L400K | middle |

Source listed as the supplement of paper PMC12338614.
